Tested on: E. coli TESEC Alr+ wild-type control
Assay: growth (OD600 after 10 h); higher = more growth (less inhibition)
Conditions: compound 0.1 mM; raw OD600 reference: median of DMSO wells 0.49, cell-free background 0.052
Where a name gives a salt, the structure may show the parent alone.
Provide the reported growth of each item.
Please give the numeric answer without any surrounding text.

Query: What value of measured growth is listed for Nc1ncnc2c1ncn2C1OC(COP(=O)(O)O)C(O)C1O (stereo not given) [Adenosine 5'-monophosphate monohydrate] ?
Reply: 0.569

Query: Query (compound): OC(Cn1cncn1)(Cn1cncn1)c1ccc(F)cc1F ; field requested: growth
Reply: 0.505

Query: Any idea what growth was measured for OCCN1CCN(CCCN2c3ccccc3Sc3ccc(Cl)cc32)CC1 ?
Reply: 0.0523

Query: Could you tell me which growth is on file for Clc1ccc2nsnc2c1NC1=NCCN1 [Tizanidine HCl] ?
Reply: 0.623

Query: Using the record for C=CCOC(Cn1ccnc1)c1ccc(Cl)cc1Cl (stereo not given) , report its growth.
Reply: 0.11

Query: Return reported growth; argument: CC(=O)O[C@]1(C(C)=O)CC[C@H]2[C@@H]3C=C(C)C4=CC(=O)CC[C@@H]4[C@H]3CC[C@@]21C [Nomegestrol acetate]
Reply: 0.14

Query: Suppose we examine the compound CCCC1O[C@@H]2C[C@H]3[C@@H]4CCC5=CC(=O)C=C[C@]5(C)[C@H]4[C@@H](O)C[C@]3(C)[C@]2(C(=O)CO)O1 (stereo not given in full) [Budesonide] ; what growth value has been reported?
Reply: 0.449

Query: Value lookup for growth; key = Nc1nc(=O)c2nc(CNc3ccc(C(=O)N[C@@H](CCC(=O)O)C(=O)O)cc3)cnc2[nH]1
Reply: 0.446

Query: What does the data say about its growth? Entry: Cc1ccnc2c1NC(=O)c1cccnc1N2C1CC1
Reply: 0.507

Query: Quick one: growth of CCN(CC)CCNC(=O)c1cc(Cl)c(N)cc1OC [Metoclopramide monohydrochloride] ?
Reply: 0.633

Query: Field request: growth | item: O=C1NCCN1c1ncc([N+](=O)[O-])s1
Reply: 0.0563

Query: # lookup: growth of Oc1ccc(C2CNCCc3c2cc(O)c(O)c3Cl)cc1 (stereo not given)
Reply: 0.355

Query: Would you mind telling me what growth value was observed for Cc1cc(/C=C/c2ccc3cc(N(C)C)ccc3[n+]2C)c(C)n1-c1ccccc1 [Pyrvinium pamoate] ?
Reply: 0.141

Query: May I ask what growth has been recorded for NS(=O)(=O)c1cc2c(cc1Cl)N=C(CSCc1ccccc1)NS2(=O)=O [Benzthiazide] ?
Reply: 0.606

Query: What value of measured growth is listed for CC[C@H]1OC(=O)[C@H](C)[C@@H](O[C@H]2C[C@@](C)(OC)[C@@H](O)[C@H](C)O2)[C@H](C)[C@@H](O[C@@H]2O[C@H](C)C[C@H](N(C)C)[C@H]2O)[C@](C)(O)C[C@@H](C)C(=O)[C@H](C)[C@@H](O)[C@]1(C)O ?
Reply: 0.0538

Query: Reported growth, compound Fc1ccc([C@@H]2CCNC[C@H]2COc2ccc3c(c2)OCO3)cc1 [Paroxetine Hydrochloride] : ____
Reply: 0.444

Query: Fill in the blank: the reported growth of Cc1cc(O)c(C(=O)N[C@@H](C(=O)N[C@@H]2C(=O)N3C(C(=O)O)=C(CSc4nnnn4C)CS[C@H]23)c2ccc(O)cc2)cn1 [Cefpiramide] is ____.
Reply: 0.584

Query: What value of measured growth is listed for COc1ccc(C[C@@H]2c3cc(OC)c(OC)cc3CC[N@+]2(C)CCC(=O)OCCCCCOC(=O)CC[N@@+]2(C)CCc3cc(OC)c(OC)cc3[C@H]2Cc2ccc(OC)c(OC)c2)cc1OC [Cisatracurium besylate] ?
Reply: 0.497

Query: Which growth value is on record for CC(C(=O)O)c1ccc(C(=O)c2cccs2)cc1 (stereo not given) ?
Reply: 0.605

Query: // lookup growth for CCS(=O)(=O)CCn1c([N+](=O)[O-])cnc1C
Reply: 0.521

Query: Reported growth for CN(C/C=C/C#CC(C)(C)C)Cc1cccc2ccccc12 : what is it?
Reply: 0.358

Query: Form field: reported growth of NS(=O)(=O)c1cc2c(cc1Cl)NCNS2(=O)=O [Hydrochlorothiazide]
Reply: 0.448

Query: Entry COc1cccc2c1C(=O)c1c(O)c3c(c(O)c1C2=O)C[C@@](O)(C(C)=O)C[C@@H]3O[C@H]1C[C@H](N)[C@H](O)[C@H](C)O1 [Daunorubicin hydrochloride] : reported growth = ?
Reply: 0.053

Query: For the compound shown here, Cc1cccc(C)c1NC(=O)C1CCCCN1C (stereo not given) [Mepivacaine hydrochloride] , give the reported growth.
Reply: 0.46

Query: Param item = CN(Cc1cnc2nc(N)nc(N)c2n1)c1ccc(C(=O)N[C@@H](CCC(=O)O)C(=O)O)cc1 (racemic) [Amethopterin (R,S)] ; retrieve measured growth.
Reply: 0.0999
